Just for reference, ChEMBL document CHEMBL4715698 is where these values come from.

# ASSAY INFO: Cmax in rat at 10 mg/kg, po
# Assay type: ADME, organism-based
# Parameters: route oral, dose 10 mg/kg
# EXPERIMENTAL CONDITIONS: in vivo
MEASURED METRIC: Cmax (nM)

(a) Cc1cc(Nc2nc(Nc3ccccc3S(=O)(=O)C(C)C)c3c(C)[nH]nc3n2)c(OC(C)C)cc1C1CCN(C)CC1
(b) Cc1cc(Nc2nc(Nc3ccccc3S(=O)(=O)C(C)C)c3cc[nH]c3n2)c(OC(C)C)cc1C1CCN(C)CC1
Task: Which entry shows the lesser value of Cmax here, a or b ? // return label of chosen record
Result: a
(a: 151 nM, b: 291 nM)

###

# STUDY SYSTEM: Mitogen-activated protein kinase 1 (Homo sapiens)
# Sequence (P28482 whole entry): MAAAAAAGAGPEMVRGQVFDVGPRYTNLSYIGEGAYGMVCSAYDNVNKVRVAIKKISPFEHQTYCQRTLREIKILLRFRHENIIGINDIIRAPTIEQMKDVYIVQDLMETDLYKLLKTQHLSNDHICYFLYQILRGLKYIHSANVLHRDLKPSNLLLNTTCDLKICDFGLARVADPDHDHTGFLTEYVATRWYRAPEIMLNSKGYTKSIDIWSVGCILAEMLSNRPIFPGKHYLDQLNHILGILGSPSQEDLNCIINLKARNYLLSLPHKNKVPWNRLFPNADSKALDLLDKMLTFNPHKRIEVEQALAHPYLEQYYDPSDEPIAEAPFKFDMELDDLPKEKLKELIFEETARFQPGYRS
# ASSAY INFO: Inhibition of MAPK1 (unknown origin)
MEASURED METRIC: IC50

Task: Can you look up the measured IC50 of Cc1cc(Nc2nc(Nc3ccccc3S(=O)(=O)C(C)C)c3c(C)[nH]nc3n2)c(OC(C)C)cc1C1CCN(C)CC1 for me?
Result: > 10 µM

###

# ASSAY INFO: Permeability of compound by PAMPA assay
# Assay type: ADME
MEASURED METRIC: log(permeability)

Cc1cc(Nc2nc(Nc3ccccc3S(=O)(=O)C(C)C)c3cn[nH]c3n2)c(OC(C)C)cc1C1CCN(C)CC1 : -4.1
Cc1cc(Nc2nc(Nc3ccccc3S(=O)(=O)C(C)C)c3c(C)[nH]nc3n2)c(OC(C)C)cc1C1CCN(C)CC1 : -4.9
Cc1cc(Nc2nc(Nc3ccccc3S(=O)(=O)C(C)C)c3cc[nH]c3n2)c(OC(C)C)cc1C1CCNCC1 : -5.7

###

# STUDY SYSTEM: Proto-oncogene tyrosine-protein kinase receptor Ret (Homo sapiens)
# Sequence (P07949 whole entry): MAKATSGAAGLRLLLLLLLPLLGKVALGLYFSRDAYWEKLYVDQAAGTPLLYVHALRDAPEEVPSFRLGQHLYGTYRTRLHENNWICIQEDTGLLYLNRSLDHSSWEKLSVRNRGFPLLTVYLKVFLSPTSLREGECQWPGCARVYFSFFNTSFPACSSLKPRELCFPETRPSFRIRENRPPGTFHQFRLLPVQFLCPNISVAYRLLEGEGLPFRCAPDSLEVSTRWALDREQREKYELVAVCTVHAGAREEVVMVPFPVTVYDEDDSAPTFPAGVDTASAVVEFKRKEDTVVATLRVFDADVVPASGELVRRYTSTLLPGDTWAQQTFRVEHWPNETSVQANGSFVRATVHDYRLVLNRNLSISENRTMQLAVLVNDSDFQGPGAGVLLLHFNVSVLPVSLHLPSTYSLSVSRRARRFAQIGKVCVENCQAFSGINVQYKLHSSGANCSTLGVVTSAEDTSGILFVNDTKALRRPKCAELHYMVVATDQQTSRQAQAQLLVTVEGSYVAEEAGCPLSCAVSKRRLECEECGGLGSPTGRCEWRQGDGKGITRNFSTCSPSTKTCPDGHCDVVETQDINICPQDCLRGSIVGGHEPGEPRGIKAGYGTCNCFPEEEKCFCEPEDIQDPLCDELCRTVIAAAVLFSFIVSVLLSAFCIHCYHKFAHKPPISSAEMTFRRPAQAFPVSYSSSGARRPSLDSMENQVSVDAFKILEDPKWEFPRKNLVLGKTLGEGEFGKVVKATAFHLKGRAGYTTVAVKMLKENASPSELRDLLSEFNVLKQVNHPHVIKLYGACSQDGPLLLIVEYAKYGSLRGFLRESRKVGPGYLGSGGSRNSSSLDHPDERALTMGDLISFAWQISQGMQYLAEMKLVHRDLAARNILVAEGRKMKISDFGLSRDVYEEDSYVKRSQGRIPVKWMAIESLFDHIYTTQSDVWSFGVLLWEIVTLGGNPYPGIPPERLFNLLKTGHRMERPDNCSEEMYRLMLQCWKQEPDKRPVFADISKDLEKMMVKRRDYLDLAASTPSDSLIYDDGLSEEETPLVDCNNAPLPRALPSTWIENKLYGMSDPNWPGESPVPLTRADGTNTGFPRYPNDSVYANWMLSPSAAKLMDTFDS
MEASURED METRIC: pIC50
In plain terms, pIC50 is the concentration in mol/L turned into minus its base-10 logarithm.

Task: Report pIC50 for Cc1cc(Nc2nc(Nc3ccccc3S(=O)(=O)C(C)C)c3c(C)[nH]nc3n2)c(OC(C)C)cc1C1CCN(C)CC1 tested on Proto-oncogene tyrosine-protein kinase receptor Ret (Homo sapiens).
Result: 5.44

###

# STUDY SYSTEM: Platelet-derived growth factor receptor alpha (Homo sapiens, UniProt P16234)
# Sequence (P16234 whole entry): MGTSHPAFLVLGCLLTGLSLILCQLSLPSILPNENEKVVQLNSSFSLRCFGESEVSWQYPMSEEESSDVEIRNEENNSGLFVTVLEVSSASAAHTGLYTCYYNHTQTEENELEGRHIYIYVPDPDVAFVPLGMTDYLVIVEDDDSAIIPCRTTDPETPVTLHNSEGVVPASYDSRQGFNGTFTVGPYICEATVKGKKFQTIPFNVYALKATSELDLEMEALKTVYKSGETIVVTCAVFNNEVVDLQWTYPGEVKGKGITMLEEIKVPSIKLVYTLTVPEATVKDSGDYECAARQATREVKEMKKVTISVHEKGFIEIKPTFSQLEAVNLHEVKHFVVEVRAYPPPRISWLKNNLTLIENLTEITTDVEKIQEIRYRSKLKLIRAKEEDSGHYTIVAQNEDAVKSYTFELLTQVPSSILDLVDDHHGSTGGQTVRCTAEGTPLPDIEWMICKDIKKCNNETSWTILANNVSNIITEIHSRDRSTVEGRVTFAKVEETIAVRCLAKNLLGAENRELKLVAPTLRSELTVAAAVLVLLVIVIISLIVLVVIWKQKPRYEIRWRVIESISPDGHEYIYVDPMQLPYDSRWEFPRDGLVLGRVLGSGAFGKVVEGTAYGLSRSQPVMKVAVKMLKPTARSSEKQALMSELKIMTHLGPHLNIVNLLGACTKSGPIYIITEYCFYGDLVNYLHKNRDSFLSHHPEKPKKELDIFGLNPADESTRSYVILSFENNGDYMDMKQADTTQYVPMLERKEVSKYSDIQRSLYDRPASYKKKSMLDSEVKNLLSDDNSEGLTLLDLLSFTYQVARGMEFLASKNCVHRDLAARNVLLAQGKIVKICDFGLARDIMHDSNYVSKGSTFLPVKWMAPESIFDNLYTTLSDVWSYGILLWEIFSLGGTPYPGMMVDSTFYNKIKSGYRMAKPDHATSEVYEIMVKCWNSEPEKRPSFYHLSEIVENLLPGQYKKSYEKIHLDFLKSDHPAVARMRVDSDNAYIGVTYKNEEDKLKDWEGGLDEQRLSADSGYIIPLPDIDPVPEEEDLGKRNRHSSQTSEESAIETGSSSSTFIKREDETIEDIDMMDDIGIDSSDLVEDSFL
MEASURED METRIC: IC50 (µM)
Answer format: numeric, µM implied, no suffix.

Task: Can you look up the measured IC50 of Cc1cc(Nc2nc(Nc3ccccc3S(=O)(=O)C(C)C)c3c(C)[nH]nc3n2)c(OC(C)C)cc1C1CCN(C)CC1 for me?
Result: 9.7

###

# ASSAY INFO: Volume of distribution at steady state in rat at 3 mg/kg, iv
# Assay type: ADME, organism-based
# EXPERIMENTAL CONDITIONS: in vivo, read-out: Vdss
MEASURED METRIC: Vd (L/kg)

Cc1cc(Nc2nc(Nc3ccccc3S(=O)(=O)C(C)C)c3cc[nH]c3n2)c(OC(C)C)cc1C1CCN(C)CC1 : 13.7
Cc1cc(Nc2nc(Nc3ccccc3S(=O)(=O)C(C)C)c3c(C)[nH]nc3n2)c(OC(C)C)cc1C1CCN(C)CC1 : 19.4

###

# STUDY SYSTEM: Tyrosine-protein kinase BTK (Homo sapiens, UniProt Q06187)
# Sequence (Q06187 whole entry): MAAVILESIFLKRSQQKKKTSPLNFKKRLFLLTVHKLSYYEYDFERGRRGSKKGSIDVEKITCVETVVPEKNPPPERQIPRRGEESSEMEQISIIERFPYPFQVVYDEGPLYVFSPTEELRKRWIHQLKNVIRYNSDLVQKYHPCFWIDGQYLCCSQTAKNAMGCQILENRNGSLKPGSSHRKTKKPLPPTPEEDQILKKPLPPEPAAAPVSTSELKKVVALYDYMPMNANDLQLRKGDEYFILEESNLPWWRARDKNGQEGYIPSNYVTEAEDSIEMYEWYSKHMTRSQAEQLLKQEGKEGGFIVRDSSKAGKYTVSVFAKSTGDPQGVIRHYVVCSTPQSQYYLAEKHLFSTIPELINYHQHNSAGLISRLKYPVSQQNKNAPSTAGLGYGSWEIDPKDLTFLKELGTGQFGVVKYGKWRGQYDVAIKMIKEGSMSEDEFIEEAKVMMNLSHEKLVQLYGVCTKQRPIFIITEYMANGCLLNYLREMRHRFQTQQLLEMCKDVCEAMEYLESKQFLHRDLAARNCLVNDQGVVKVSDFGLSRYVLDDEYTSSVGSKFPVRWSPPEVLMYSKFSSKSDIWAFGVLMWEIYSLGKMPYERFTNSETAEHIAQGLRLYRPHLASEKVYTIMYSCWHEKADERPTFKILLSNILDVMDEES
MEASURED METRIC: IC50 (µM)
Answer format: numeric, µM implied, no suffix.

Task: Can you look up the measured IC50 of Cc1cc(Nc2nc(Nc3ccccc3S(=O)(=O)C(C)C)c3c(C)[nH]nc3n2)c(OC(C)C)cc1C1CCN(C)CC1 for me?
Result: 9.4
